Ref: PubChem BioAssay (NCI)

Give measured growth for each item. Keep answers brief.
# System: HS 578T breast
# protocol-details: NCI-60 one-dose screen, 48 h (100 = growth as untreated, 0 = no growth, -100 = all killed)
# experimental-context: 10 µM unless noted
Compounds without any hit were thinned out: in the full panel of roughly 83,000, 20% have a hit. Activity calls are given as the source filed them. How the source made its calls: active means growth percent below 10; inactive means the rest.

Use the examples below as a reference point.
CC1=C(CC(=O)c2cccc([N+](=O)[O-])c2)C(=O)c2ccccc2C1=O :: -20.6% (active)
COc1cc(/C(C#N)=C/c2nc3c(N4CCOCC4)nc(Cl)nc3n2C)cc(OC)c1OC :: 0.385% (active)
CC(C)C[C@H](C(=O)N[C@@H](C)C(N)=O)N1CC=CCN(O)S1(=O)=O :: 110% [5 µM] (inactive)
O=c1oc2ccc(F)cc2c(=O)n1-c1ccc(I)cc1F :: -4.95% (active)

Let us examine a further case.
Query: # input compound: COc1ccc(-c2cn[nH]c2-c2ccc(OC)c(O)c2)cc1 ; wanted: its growth
Result: 75.9% (inactive)
